test: Solubility and solubility-range determination in 50 mM phosphate buffer at different pH; assay type: physicochemical; conditions: aqueous buffer, kinetic from dmso stock, pH 9, 50 mM phosphate buffer, 1% DMSO, 23° C., read-out: Solubility or solubility range
Each entry below lists one item and its recorded solubility at 24 h value.

Use these answered entries as a reference point.
{"columns": ["Structure smiles", "solubility at 24 h"],
 "data": [
  ["CCCCN1CCN(C(=N)c2cccc(NC(=O)Nc3ccc(S(=O)(=O)NCc4ccc(S(N)(=O)=O)cc4)cc3)c2)CC1", "540 µg/mL"],
  ["COC(=O)N1CCN(C(=N)c2cccc(NC(=O)Nc3ccc(S(=O)(=O)NCc4ccc(S(N)(=O)=O)cc4)cc3)c2)CC1", "456 µg/mL"],
  ["N=C(c1cccc(NC(=O)Nc2ccc(S(=O)(=O)NCc3ccc(S(N)(=O)=O)cc3)cc2)c1)N1CCS(=O)(=O)CC1", "> 200 µg/mL"],
  ["CCCN1CCN(C(=N)c2cccc(NC(=O)Nc3ccc(S(=O)(=O)NCc4ccc(S(N)(=O)=O)cc4)cc3)c2)CC1", "> 200 µg/mL"],
  ["CCC(=O)N1CCN(C(=N)c2cccc(NC(=O)Nc3ccc(S(=O)(=O)NCc4ccc(S(N)(=O)=O)cc4)cc3)c2)CC1", "> 200 µg/mL"]
]}

solubility at 24 h reading for N=C(c1cccc(NC(=O)Nc2ccc(S(=O)(=O)NCc3ccc(S(N)(=O)=O)cc3)cc2)c1)N1CCNCC1 : > 200 µg/mL
